Origin of the recorded values: ChEMBL document CHEMBL3259567

Below are pIC50 values measured for Hepatocyte growth factor receptor (Homo sapiens, UniProt P08581).
pIC50: −log10 of the molar value.

Here are 2 compounds together with their reported answers.
CNC(=O)c1ccccc1Nc1nc(Nc2ccc3c(c2)C(C)CN(C)CC3)nc(N2CCOCC2)c1Cl (stereo not drawn) :: < 6.00
CNC(=O)c1ccccc1Nc1nc(Nc2ccc3c(c2)C(C)CN(C)CC3)nc(F)c1Cl (stereo not drawn) :: < 6.00

Switching to the query record.
Enquiry: Item CNC(=O)c1ccccc1Nc1nc(Nc2ccc3c(c2)C(C)CNCC3)ncc1Cl (stereo not drawn) : provide pIC50
Return: 8.19

###

- METHOD_DESCRIPTION: AUC (0 to infinity) in mouse at 20 mg/kg, po
- Format: ADME, organism-based
- Design: time infinity, dose 20 mg/kg, route oral
- APPLIED_CONDITIONS: plasma
QUANTITY_MEASURED: AUC(0-inf) (ng·h/mL)

(1) CNC(=O)c1ccccc1Nc1nc(Nc2ccc3c(c2)C(c2ccccc2)CN(C)CC3)ncc1Cl (racemic)
(2) CNC(=O)c1ccccc1Nc1nc(Nc2ccc3c(c2)C(C)CN(C)CC3)ncc1Cl (racemic)
Enquiry: Kindly compare 1 with 2 and tell me which has the lower AUC(0-inf) figure. Answer format: the label of the selected item.
Return: 2
(2: 5500 ng·h/mL, 1: 9070 ng·h/mL)

###

- TEST_SYSTEM: UniProtKB P21918
- Sequence (P21918 whole entry): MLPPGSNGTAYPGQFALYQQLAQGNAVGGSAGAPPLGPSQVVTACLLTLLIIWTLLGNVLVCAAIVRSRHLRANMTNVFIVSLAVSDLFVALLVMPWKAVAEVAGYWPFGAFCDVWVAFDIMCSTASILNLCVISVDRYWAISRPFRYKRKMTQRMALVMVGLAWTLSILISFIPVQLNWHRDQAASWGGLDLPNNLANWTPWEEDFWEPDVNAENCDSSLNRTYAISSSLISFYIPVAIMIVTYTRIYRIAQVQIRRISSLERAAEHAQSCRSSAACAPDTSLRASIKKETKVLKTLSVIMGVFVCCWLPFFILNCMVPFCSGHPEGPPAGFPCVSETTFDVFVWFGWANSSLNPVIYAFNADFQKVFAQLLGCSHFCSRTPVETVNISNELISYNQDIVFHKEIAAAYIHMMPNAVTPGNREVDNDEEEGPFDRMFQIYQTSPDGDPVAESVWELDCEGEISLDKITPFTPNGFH
- METHOD_DESCRIPTION: Antagonist activity at dopamine D5 receptor (unknown origin)
QUANTITY_MEASURED: Ki

Enquiry: Report the value of Ki obtained on UniProtKB P21918 for CN1CCc2ccccc2Cc2[nH]c3ccccc3c2CC1 .
Return: < 10 nM

###

- TEST_SYSTEM: D(1A) dopamine receptor (Homo sapiens)
- Sequence (P21728 whole entry): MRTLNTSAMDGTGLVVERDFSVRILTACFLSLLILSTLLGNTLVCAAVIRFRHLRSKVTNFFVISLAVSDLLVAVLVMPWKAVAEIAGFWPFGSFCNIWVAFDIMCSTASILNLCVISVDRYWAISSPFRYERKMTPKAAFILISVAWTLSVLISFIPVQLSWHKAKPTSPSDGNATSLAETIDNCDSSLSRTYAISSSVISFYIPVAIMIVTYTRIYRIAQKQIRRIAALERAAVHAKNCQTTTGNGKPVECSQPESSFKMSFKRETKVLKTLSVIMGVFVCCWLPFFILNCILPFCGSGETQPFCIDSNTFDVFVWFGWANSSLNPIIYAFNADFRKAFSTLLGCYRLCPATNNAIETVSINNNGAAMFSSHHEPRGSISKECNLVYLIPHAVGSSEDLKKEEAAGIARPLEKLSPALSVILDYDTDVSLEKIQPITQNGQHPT
- METHOD_DESCRIPTION: Antagonist activity at dopamine D1 receptor (unknown origin)
QUANTITY_MEASURED: Ki

Enquiry: Indicate its recorded Ki; the molecule in question is CN1CCc2ccccc2Cc2[nH]c3ccccc3c2CC1
Return: < 10 nM

###

- METHOD_DESCRIPTION: Clearance in mouse at 10 mg/kg, iv
- Type: ADME, organism-based
- Design: dose 10 mg/kg, route intravenous
- APPLIED_CONDITIONS: in vivo
QUANTITY_MEASURED: clearance (mL/min/kg)

CNC(=O)c1ccccc1Nc1nc(Nc2ccc3c(c2)C(C)CN(C)CC3)ncc1Cl (racemic) :: 33.3
CNC(=O)c1ccccc1Nc1nc(Nc2ccc3c(c2)C(c2ccccc2)CN(C)CC3)ncc1Cl (racemic) :: 33.3

###

- METHOD_DESCRIPTION: Half life in mouse at 10 mg/kg, iv
- Type: ADME, organism-based
- Design: dose 10 mg/kg, route intravenous
- APPLIED_CONDITIONS: in vivo
QUANTITY_MEASURED: half-life (h)

CNC(=O)c1ccccc1Nc1nc(Nc2ccc3c(c2)C(c2ccccc2)CN(C)CC3)ncc1Cl (racemic) :: 2.2
CNC(=O)c1ccccc1Nc1nc(Nc2ccc3c(c2)C(C)CN(C)CC3)ncc1Cl (racemic) :: 2.2
